Task for the reader: assign each of the following compounds its reported inhibition at 0.1 µM.
Tested target: CDK4 (Homo sapiens)
Sequence (P11802 whole entry, species assumed): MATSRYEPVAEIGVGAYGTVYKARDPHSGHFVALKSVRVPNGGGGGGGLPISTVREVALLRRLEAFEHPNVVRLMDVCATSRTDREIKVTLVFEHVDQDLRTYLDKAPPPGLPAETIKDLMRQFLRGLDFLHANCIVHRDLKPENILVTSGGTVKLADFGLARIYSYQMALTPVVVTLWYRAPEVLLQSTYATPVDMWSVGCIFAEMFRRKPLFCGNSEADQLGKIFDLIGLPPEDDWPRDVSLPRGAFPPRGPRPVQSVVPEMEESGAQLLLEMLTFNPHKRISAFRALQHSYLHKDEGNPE
Sequence (P30281 whole entry partner, species assumed): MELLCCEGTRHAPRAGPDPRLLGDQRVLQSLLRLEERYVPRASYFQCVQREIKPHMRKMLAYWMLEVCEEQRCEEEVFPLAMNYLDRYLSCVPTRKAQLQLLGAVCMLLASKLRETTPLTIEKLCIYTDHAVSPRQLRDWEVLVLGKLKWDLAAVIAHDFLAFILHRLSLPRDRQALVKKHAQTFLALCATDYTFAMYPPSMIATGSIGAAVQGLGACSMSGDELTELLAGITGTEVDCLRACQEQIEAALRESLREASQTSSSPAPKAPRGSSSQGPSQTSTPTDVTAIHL
Procedure details: CDK4 inhibition by Caliper assay
Type: biochemical
Condition context: compound 100 nM
Give the value, in units of %, as a plain number.

Documented inhibition at 0.1 µM of CC(=O)c1c(C)c2cnc(Nc3ccc(N4CCN(CCOCCOCCOc5cccc6c5C(=O)N(C5CCC(=O)NC5=O)C6=O)CC4)cn3)nc2n(C2CCCC2)c1=O (stereo not drawn) : 82

Value of inhibition at 0.1 µM reported for the compound CC(=O)c1c(C)c2cnc(Nc3ccc(N4CCN(CCOCCOCCOCCNc5cccc6c5C(=O)N(C5CCC(=O)NC5=O)C6=O)CC4)cn3)nc2n(C2CCCC2)c1=O (stereo not drawn) is 97

So, CC(=O)c1c(C)c2cnc(Nc3ccc(N4CCN(C(=O)COCCOCCNc5cccc6c5C(=O)N(C5CCC(=O)NC5=O)C6=O)CC4)cn3)nc2n(C2CCCC2)c1=O (stereo not drawn) ? Its inhibition at 0.1 µM was 93

According to the records, this compound CC(=O)c1c(C)c2cnc(Nc3ccc(N4CCN(CCCCOc5cccc6c5C(=O)N(C5CCC(=O)NC5=O)C6=O)CC4)cn3)nc2n(C2CCCC2)c1=O (stereo not drawn) displays inhibition at 0.1 µM of 96

Entry CN(C)C(=O)c1cc2cnc(Nc3ccc(N4CCN(CCOCCOCCOc5cccc6c5C(=O)N(C5CCC(=O)NC5=O)C6=O)CC4)cn3)nc2n1C1CCCC1 (stereo not drawn) — recorded inhibition at 0.1 µM = 80

For CN(C)C(=O)c1cc2cnc(Nc3ccc(N4CCN(CCOCCOCCNc5cccc6c5C(=O)N(C5CCC(=O)NC5=O)C6=O)CC4)cn3)nc2n1C1CCCC1 (stereo not drawn) the compound record lists inhibition at 0.1 µM as 82
